Tested on: OVCAR-5
Experiment: NCI-60 one-dose screen
Type: cell-based
Details: Homo sapiens; OVCAR-5, Ovarian Cancer panel; single dose 10^−5 M; read-out: Growth inhibition %
Please use Fulfilled whenever inhibition at 10 µM is not below 50%, and Not fulfilled whenever it is.

input: Has `Cc1cccc(CNc2c3ccccc3nc3ccccc23)c1` a recorded inhibition at 10 µM greater than or equal to 50%?
output: Fulfilled

input: Now consider `COc1ccc(CNc2c3ccccc3nc3ccccc23)cc1OC` and answer again.
output: Fulfilled

input: Now consider `c1ccc(CCNc2c3ccccc3nc3ccccc23)cc1` and answer again.
output: Not fulfilled

input: Now consider `COc1cccc(CNc2c3ccccc3nc3ccccc23)c1OC` and answer again.
output: Fulfilled

input: Now consider `Fc1cccc(CNc2c3ccccc3nc3ccccc23)c1F` and answer again.
output: Not fulfilled

input: Now consider `Fc1ccc(CNc2c3ccccc3nc3ccccc23)cc1F` and answer again.
output: Fulfilled

input: Now consider `COc1ccc(CNc2c3ccccc3nc3ccccc23)cc1F` and answer again.
output: Fulfilled

input: Now consider `Cc1ccccc1CNc1c2ccccc2nc2ccccc12` and answer again.
output: Fulfilled

input: Now consider `Fc1ccc(CNc2c3ccccc3nc3ccccc23)c(F)c1` and answer again.
output: Not fulfilled

input: Now consider `COc1ccc2nc3ccccc3c(NCc3ccc(F)cc3)c2c1` and answer again.
output: Fulfilled

input: Now consider `COc1ccc2nc3ccccc3c(NCc3ccccc3)c2c1` and answer again.
output: Fulfilled

input: Now consider `c1ccc(CNc2c3ccccc3nc3ccccc23)cc1` and answer again.
output: Fulfilled

input: Now consider `Fc1cccc(CNc2c3ccccc3nc3ccccc23)c1` and answer again.
output: Fulfilled

input: Now consider `COc1ccc2nc3ccccc3c(NCc3ccc(Cl)cc3)c2c1` and answer again.
output: Fulfilled

input: Now consider `COc1cccc(CNc2c3ccccc3nc3ccccc23)c1` and answer again.
output: Fulfilled

input: Now consider `c1coc(CNc2c3ccccc3nc3ccccc23)c1` and answer again.
output: Not fulfilled

input: Now consider `Clc1ccccc1CNc1c2ccccc2nc2ccccc12` and answer again.
output: Fulfilled

input: Now consider `Fc1ccc(CNc2c3ccccc3nc3ccccc23)cc1` and answer again.
output: Fulfilled

input: Now consider `Cc1ccc(CNc2c3ccccc3nc3ccccc23)cc1` and answer again.
output: Fulfilled

input: Now consider `COc1ccc(CNc2c3ccccc3nc3ccccc23)cc1` and answer again.
output: Fulfilled

input: Now consider `c1csc(-c2ccc(CNc3c4ccccc4nc4ccccc34)cc2)c1` and answer again.
output: Not fulfilled

====

Field: inhibition at 10 µM. Provide a value for each of the compounds that follow.
System: CAKI-1
Assay: NCI-60 one-dose screen
Assay type: cell-based
Details: Homo sapiens; CAKI-1, Renal Cancer panel; single dose 10^−5 M; read-out: Growth inhibition %
Don't forget the unit after the value.

input: Would you kindly share the measured inhibition at 10 µM for `Fc1ccccc1CNc1c2ccccc2nc2ccccc12` ?
output: 64.2%

input: Now consider `Cc1cccc(CNc2c3ccccc3nc3ccccc23)c1` and answer again.
output: 82.3%

input: Now consider `COc1ccc2nc3ccccc3c(NCc3ccc(F)cc3)c2c1` and answer again.
output: 92.8%

input: Now consider `COc1cccc(CNc2c3ccccc3nc3ccccc23)c1OC` and answer again.
output: 66.3%

input: Now consider `COc1ccc2nc3ccccc3c(NCc3ccccc3)c2c1` and answer again.
output: 74.2%

input: Now consider `Fc1cccc(CNc2c3ccccc3nc3ccccc23)c1` and answer again.
output: 73%

====

Test system: MDA-MB-231/ATCC
Test: NCI-60 one-dose screen
Type: cell-based
Details: Homo sapiens, Breast Cancer panel, single dose 10^−5 M, read-out: Growth inhibition %
Please use y whenever inhibition at 10 µM is not below 60%, and n whenever it is.

input: Has `COc1ccc(CNc2c3ccccc3nc3ccccc23)c(OC)c1` a recorded inhibition at 10 µM greater than or equal to 60%?
output: n

input: Now consider `Fc1ccc(CNc2c3ccccc3nc3ccccc23)c(F)c1` and answer again.
output: n

input: Now consider `Clc1cccc(CNc2c3ccccc3nc3ccccc23)c1` and answer again.
output: y

input: Now consider `Fc1cccc(CNc2c3ccccc3nc3ccccc23)c1F` and answer again.
output: n

input: Now consider `c1ccc(CNc2c3ccccc3nc3ccccc23)cc1` and answer again.
output: n

input: Now consider `COc1cccc(CNc2c3ccccc3nc3ccccc23)c1` and answer again.
output: n

input: Now consider `COc1ccccc1CNc1c2ccccc2nc2ccccc12` and answer again.
output: n

input: Now consider `COc1ccc(CNc2c3ccccc3nc3ccccc23)cc1OC` and answer again.
output: y

input: Now consider `Cc1ccc2nc3ccccc3c(NCc3ccccc3)c2c1` and answer again.
output: y

input: Now consider `Cc1ccc2nc3ccccc3c(NCc3ccc(Cl)cc3)c2c1` and answer again.
output: y

input: Now consider `c1ccc(CCNc2c3ccccc3nc3ccccc23)cc1` and answer again.
output: n

input: Now consider `COc1ccc(CNc2c3ccccc3nc3ccc(OC)cc23)cc1` and answer again.
output: y

input: Now consider `Clc1ccc(CNc2c3ccccc3nc3ccccc23)cc1` and answer again.
output: n

====

System: MDA-MB-468
Assay: NCI-60 one-dose screen
Format: cell-based
Conditions: Homo sapiens; MDA-MB-468, Breast Cancer panel; single dose 10^−5 M; read-out: Growth inhibition %
Field: inhibition at 10 µM. Provide a value for each of the compounds that follow.
The reply should contain only the number, in %.

input: So what inhibition at 10 µM did `c1csc(-c2ccc(CNc3c4ccccc4nc4ccccc34)cc2)c1` get with MDA-MB-468?
output: 173

input: Now consider `c1ccc(CCNc2c3ccccc3nc3ccccc23)cc1` and answer again.
output: 111

input: Now consider `COc1ccc2nc3ccccc3c(NCc3ccccc3)c2c1` and answer again.
output: 110

input: Now consider `Fc1cccc(CNc2c3ccccc3nc3ccccc23)c1` and answer again.
output: 99.4

input: Now consider `Cc1cccc(CNc2c3ccccc3nc3ccccc23)c1` and answer again.
output: 100

input: Now consider `COc1ccc(CNc2c3ccccc3nc3ccccc23)cc1F` and answer again.
output: 119

input: Now consider `Fc1ccc(CNc2c3ccccc3nc3ccccc23)c(F)c1` and answer again.
output: 104

====

Tested on: LOX IMVI
Experiment: NCI-60 one-dose screen
Type: cell-based
Conditions: Homo sapiens, Melanoma panel, single dose 10^−5 M, read-out: Growth inhibition %
Please use true (1) whenever inhibition at 10 µM is not below 90%, and false (0) whenever it is.

input: Has Clc1ccccc1CNc1c2ccccc2nc2ccccc12 [Compound 11, Acridin-9-yl-(2-chlorobenzyl)-amine] a recorded inhibition at 10 µM greater than or equal to 90%?
output: true (1)

input: Now consider COc1cccc(CNc2c3ccccc3nc3ccccc23)c1 [Compound 6, Acridin-9-yl-(3-methoxybenzyl)-amine] and answer again.
output: false (0)

input: Now consider Cc1cccc(CNc2c3ccccc3nc3ccccc23)c1 [Compound 3, Acridin-9-yl-(3-methylbenzyl)-amine] and answer again.
output: true (1)

input: Now consider COc1ccc(CNc2c3ccccc3nc3ccccc23)cc1 [Compound 7, Acridin-9-yl-(4-methoxybenzyl)-amine] and answer again.
output: false (0)

input: Now consider Cc1ccc2nc3ccccc3c(NCc3ccc(Cl)cc3)c2c1 [Compound 31] and answer again.
output: true (1)

input: Now consider c1ccc(CNc2c3ccccc3nc3ccccc23)cc1 [Compound 1, Acridin-9-yl-benzyl-amine] and answer again.
output: false (0)

input: Now consider COc1ccc(CNc2c3ccccc3nc3ccccc23)c(OC)c1 [Compound 17, Acridin-9-yl-(2,4-dimethoxybenzyl)-amine] and answer again.
output: false (0)

input: Now consider COc1ccc2nc3ccccc3c(NCc3ccc(F)cc3)c2c1 [Compound 28] and answer again.
output: true (1)

input: Now consider COc1ccc2nc3ccccc3c(NCc3ccccc3)c2c1 [Compound 25, Benzyl-(2-methoxyacridin-9-yl)-amine] and answer again.
output: true (1)

input: Now consider COc1ccc(CNc2c3ccccc3nc3ccc(OC)cc23)cc1 [Compound 27] and answer again.
output: true (1)

====

Test system: BT-549
Assay: NCI-60 one-dose screen
Assay type: cell-based
Conditions: Homo sapiens; BT-549, Breast Cancer panel; single dose 10^−5 M; read-out: Growth inhibition %
ENDPOINT LABEL: inhibition at 10 µM
Don't forget the unit after the value.

input: Would you kindly share the measured inhibition at 10 µM for `Cc1ccc(CNc2c3ccccc3nc3ccccc23)cc1` ?
output: 28.7%

input: Now consider `COc1ccc(CNc2c3ccccc3nc3ccccc23)c(OC)c1` and answer again.
output: 33.3%

input: Now consider `COc1ccc2nc3ccccc3c(NCc3ccccc3)c2c1` and answer again.
output: 49.7%

input: Now consider `Fc1ccccc1CNc1c2ccccc2nc2ccccc12` and answer again.
output: 15.1%

input: Now consider `COc1ccc2nc3ccccc3c(NCc3ccc(Cl)cc3)c2c1` and answer again.
output: 49.8%

input: Now consider `COc1ccccc1CNc1c2ccccc2nc2ccccc12` and answer again.
output: 23%

input: Now consider `Fc1ccc(CNc2c3ccccc3nc3ccccc23)c(F)c1` and answer again.
output: 17.2%

input: Now consider `Fc1cccc(CNc2c3ccccc3nc3ccccc23)c1` and answer again.
output: 22.9%

input: Now consider `COc1cccc(CNc2c3ccccc3nc3ccccc23)c1` and answer again.
output: 31.3%

input: Now consider `Clc1cccc(CNc2c3ccccc3nc3ccccc23)c1` and answer again.
output: 40.9%

input: Now consider `Cc1ccc2nc3ccccc3c(NCc3ccc(Cl)cc3)c2c1` and answer again.
output: 24.4%

input: Now consider `Clc1ccccc1CNc1c2ccccc2nc2ccccc12` and answer again.
output: 61.9%

input: Now consider `COc1ccc(CNc2c3ccccc3nc3ccccc23)cc1OC` and answer again.
output: 57.9%

input: Now consider `COc1ccc(CNc2c3ccccc3nc3ccccc23)cc1` and answer again.
output: 19.9%

input: Now consider `c1ccc(CCNc2c3ccccc3nc3ccccc23)cc1` and answer again.
output: 26.4%

input: Now consider `c1ccc(CNc2c3ccccc3nc3ccccc23)cc1` and answer again.
output: 27.2%

input: Now consider `COc1ccc(CNc2c3ccccc3nc3ccccc23)cc1F` and answer again.
output: 50.5%

input: Now consider `COc1ccc2nc3ccccc3c(NCc3ccc(F)cc3)c2c1` and answer again.
output: 65%

input: Now consider `c1coc(CNc2c3ccccc3nc3ccccc23)c1` and answer again.
output: 2.59%
